Origin of measurements: the kinase profiling compilation of Christmann-Franck et al. (2016)

# Tested on: SGK1 (human), O00141 [S422D]
# Sequence (O00141 whole entry S422D, looked up): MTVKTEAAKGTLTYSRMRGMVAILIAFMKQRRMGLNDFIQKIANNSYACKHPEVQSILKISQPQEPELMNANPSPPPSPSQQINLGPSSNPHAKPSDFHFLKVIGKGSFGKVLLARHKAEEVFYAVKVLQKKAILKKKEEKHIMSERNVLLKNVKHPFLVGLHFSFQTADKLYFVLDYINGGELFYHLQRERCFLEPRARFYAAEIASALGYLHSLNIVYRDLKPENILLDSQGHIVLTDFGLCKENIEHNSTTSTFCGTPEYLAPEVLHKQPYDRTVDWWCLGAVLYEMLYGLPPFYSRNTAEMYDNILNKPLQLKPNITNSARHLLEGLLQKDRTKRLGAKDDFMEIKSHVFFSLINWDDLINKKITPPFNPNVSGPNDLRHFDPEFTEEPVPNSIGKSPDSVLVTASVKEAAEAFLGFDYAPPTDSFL
# assay-summary: radiometric filter-binding kinase assay, Kinase HotSpot
# condition-set: compound 0.5 µM; ATP 10 µM
measurement-type: residual activity (%)
Reply numerically in %, unit not repeated.

Examples with their reported residual activity follow.
COc1cc2c(Nc3ccc(Br)cc3F)ncnc2cc1OCC1CCN(C)CC1: 115
CC#CC(=O)Nc1cc2c(Nc3ccc(F)c(Cl)c3)ncnc2cn1: 95.6
O=C1Nc2ccccc2/C1=C1/Nc2ccccc2/C1=N\OCCC(O)CO (stereo not drawn): 51
N/C(=N\N=C/c1ccc(-c2cccc([N+](=O)[O-])c2)o1)N[N+](=O)[O-]: 92.4
CO[C@H]1CC2CC[C@@H](C)[C@@](O)(O2)C(=O)C(=O)N2CCCC[C@H]2C(=O)OC([C@H](C)C[C@@H]2CC[C@@H](O)[C@H](OC)C2)CC(=O)[C@H](C)/C=C(\C)[C@@H](O)[C@@H](OC)C(=O)[C@H](C)C[C@H](C)/C=C/C=C/C=C/1C (stereo partly drawn): 101
Cn1c2ccccc2c2c3c(c4c5ccccc5n(CCC#N)c4c21)CNC3=O: 79.1

Exam item: Indicate the recorded residual activity value for this compound: "COc1ccc2c(c[n+](C)c3c4cc5c(cc4ccc23)OCO5)c1OC"
Marked response: 118

Exam item: Consider the compound "C#Cc1cccc(Nc2ncnc3cc(OCCOC)c(OCCOC)cc23)c1" and give its recorded residual activity.
Marked response: 122
